Target: T1, CRBN, Q96SW2;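 also: pooled lentiviral library of zinc finger degron-EGFP fusions in mCherry-positive Jurkat cells, FACS-sorted after compound exposure, with degron abundance counted by next-generation sequencing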
T1 chain: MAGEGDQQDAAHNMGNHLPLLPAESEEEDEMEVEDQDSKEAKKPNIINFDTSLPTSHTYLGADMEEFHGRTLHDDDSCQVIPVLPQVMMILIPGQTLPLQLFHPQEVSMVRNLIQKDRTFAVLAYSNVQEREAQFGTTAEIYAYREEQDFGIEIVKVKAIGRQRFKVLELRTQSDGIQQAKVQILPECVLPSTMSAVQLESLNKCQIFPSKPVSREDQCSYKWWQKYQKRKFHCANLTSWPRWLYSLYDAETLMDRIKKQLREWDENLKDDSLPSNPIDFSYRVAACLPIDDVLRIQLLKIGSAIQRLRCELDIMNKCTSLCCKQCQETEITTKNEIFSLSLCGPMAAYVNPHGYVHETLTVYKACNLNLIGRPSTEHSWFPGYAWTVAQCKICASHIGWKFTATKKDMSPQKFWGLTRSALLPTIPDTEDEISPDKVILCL
Assay: log2 fold change of degron read counts, EGFP-low vs EGFP+ sorted cells (limma voom), compound-induced degradation; higher = more compound-induced degradation of the degron-EGFP fusion; degrons are variants of IKZF1/3 zinc finger 2; compound dose not given here
Conditions: Jurkat; 18 h; compound: compound 33 (diphenyl IMiD analogue)
In all, about 8,300 sequences were measured (“log2 fold change of degron read counts, EGFP-low vs EGFP+ sorted cells (limma voom), compound-induced degradation”: median about -1.1, highest 2% from about 3.2 on). Only a selection was taken, and the highest values are over-represented in it overall.
OBSERVABLE: log2 fold change of degron read counts
Reply with the value as a number alone.

Noted for FYCEQCGALFTQKGNLLRHIKL [46F_47Y_49E_50Q_52G_53A_54L_55F_67L_, Q9UKT9] : its log2 fold change of degron read counts reads -0.131

// field: log2 fold change of degron read counts; key: FDCEICGAYFTQKGNLLRHIKL [46F_47D_49E_50I_52G_53A_54Y_55F_67L_, Q9UKT9] ; value = -0.229

Entry FRCSVCGHLFTQKGNLLRHIKL [46F_47R_49S_50V_52G_53H_54L_55F_67L_, Q9UKT9] — recorded log2 fold change of degron read counts = -2.34

Given item FWCPQCGAQFTQKGNLLRHIKL [46F_47W_49P_50Q_52G_53A_54Q_55F_67L_, Q9UKT9] , the value recorded as its log2 fold change of degron read counts is 1.31

Record FRCPVCGAQFTQKGNLLRHIKL [46F_47R_49P_50V_52G_53A_54Q_55F_67L_, Q9UKT9] , field log2 fold change of degron read counts: 0.974

Measured log2 fold change of degron read counts, FMCPVCGAQFTQKGNLLRHIKL [46F_47M_49P_50V_52G_53A_54Q_55F_67L_, Q9UKT9] : 2.9

Reported log2 fold change of degron read counts of FYCPVCGAQFTQKGNLLRHIKL [46F_47Y_49P_50V_52G_53A_54Q_55F_67L_, Q9UKT9] : 2.38

The recorded log2 fold change of degron read counts for FFCPVCGAQFTQKGNLLRHIKL [46F_47F_49P_50V_52G_53A_54Q_55F_67L_, Q9UKT9] is 2.43

Sample FQCPQCGAVFTQKGNLLRHIKL [46F_47Q_49P_50Q_52G_53A_54V_55F_67L_, Q9UKT9] ; log2 fold change of degron read counts observed: 0.715

Entry FLCNQCGHSFTQKGNLLRHIKL [46F_47L_49N_50Q_52G_53H_54S_55F_67L_, Q9UKT9] , log2 fold change of degron read counts reported as -3.12

Form: sequence = FYCPICGAIFTQKGNLLRHIKL [46F_47Y_49P_50I_52G_53A_54I_55F_67L_, Q9UKT9] ; log2 fold change of degron read counts = 1.86

Given item FVCPQCGAQFTQKGNLLRHIKL [46F_47V_49P_50Q_52G_53A_54Q_55F_67L_, Q9UKT9] , the value recorded as its log2 fold change of degron read counts is 1.72

Reported log2 fold change of degron read counts ( FSCPVCGAVFTQKGNLLRHIKL [46F_47S_49P_50V_52G_53A_54V_55F_67L_, Q9UKT9] ) = 2.79

Record FTCPICGRIFTQKGNLLRHIKL [46F_47T_49P_50I_52G_53R_54I_55F_67L_, Q9UKT9] . Reported log2 fold change of degron read counts: 0.959

Lab book: log2 fold change of degron read counts of FWCEVCGADFTQKGNLLRHIKL [46F_47W_49E_50V_52G_53A_54D_55F_67L_, Q9UKT9] noted as -0.582

Query FVCPICGAIFTQKGNLLRHIKL [46F_47V_49P_50I_52G_53A_54I_55F_67L_, Q9UKT9] yields log2 fold change of degron read counts of 1.51

Record FTCEICGAFFTQKGNLLRHIKL [46F_47T_49E_50I_52G_53A_54F_55F_67L_, Q9UKT9] . Reported log2 fold change of degron read counts: 0.985

The sequence FVCDICGANFTQKGNLLRHIKL [46F_47V_49D_50I_52G_53A_54N_55F_67L_, Q9UKT9] showed log2 fold change of degron read counts equal to 0.815

The sequence FMCPICGHYFTQKGNLLRHIKL [46F_47M_49P_50I_52G_53H_54Y_55F_67L_, Q9UKT9] showed log2 fold change of degron read counts equal to -1.11

For reference, reported log2 fold change of degron read counts for FICDICGATFTQKGNLLRHIKL [46F_47I_49D_50I_52G_53A_54T_55F_67L_, Q9UKT9] stands at 0.735

Notebook: FVCPQCGAVFTQKGNLLRHIKL [46F_47V_49P_50Q_52G_53A_54V_55F_67L_, Q9UKT9] , log2 fold change of degron read counts read as 0.556

sequence FWCPVCGAQFTQKGNLLRHIKL [46F_47W_49P_50V_52G_53A_54Q_55F_67L_, Q9UKT9] , log2 fold change of degron read counts observed: 2.63

log2 fold change of degron read counts in this record for FSCPICGAIFTQKGNLLRHIKL [46F_47S_49P_50I_52G_53A_54I_55F_67L_, Q9UKT9] : 2.26

The reported value for FLCPVCGAQFTQKGNLLRHIKL [46F_47L_49P_50V_52G_53A_54Q_55F_67L_, Q9UKT9] in terms of log2 fold change of degron read counts is 1.82

Quick note, log2 fold change of degron read counts for LYCPICGFICTQKGNLLRHIKL [46L_47Y_49P_50I_52G_53F_54I_55C_67L_, Q9UKT9] landed at 1.98

Recorded result, FSCPVCGAQFTQKGNLLRHIKL [46F_47S_49P_50V_52G_53A_54Q_55F_67L_, Q9UKT9] , log2 fold change of degron read counts: 1.65

Given item FGCPICGRIFTQKGNLLRHIKL [46F_47G_49P_50I_52G_53R_54I_55F_67L_, Q9UKT9] , the value recorded as its log2 fold change of degron read counts is 0.585

Lab note: FKCPICGAIFTQKGNLLRHIKL [46F_47K_49P_50I_52G_53A_54I_55F_67L_, Q9UKT9] gave log2 fold change of degron read counts of -3.09

Field log2 fold change of degron read counts (entry FNCNQCGRFFTQKGNLLRHIKL [46F_47N_49N_50Q_52G_53R_54F_55F_67L_, Q9UKT9] ) reads -1.9
